# Assayed Target: monoclonal antibody mAB 198
# Measurement Description: peptide microarray, fluorescence, cyclic peptide
Where no end group is shown, it is not given here.
Experimental Endpoint: relative signal [%] (%)
# value in %; strip the unit string

relative signal [%] for RINPADYGG (also: cyclic peptide, ring type and places not given here) is 23.1

relative signal [%] for SLRYNPADY (also: cyclic peptide, mode of cyclisation not given here) is 12.2

relative signal [%] for SLRGNPADY (also: cyclic peptide, ring type and places not given here) is 15.4

relative signal [%] for RYNPADY (also: cyclic peptide, ring type and places not given here) [RYNPADY, cyclic mimotope] is 20.2

More entries:
relative signal [%] for LRPNPADYG (also: cyclic peptide, mode of cyclisation not given here) is 10
